Value source: ChEMBL document CHEMBL1153840

- TARGET: Histidinol dehydrogenase (Brucella suis biovar 1 (strain 1330), UniProt Q8G2R2)
- EXPERIMENT_DESCRIPTION: Inhibition of Brucella suis histidinol dehydrogenase
Listed next: entries and their corresponding IC50.

Past entries and their recorded results:
Cl.Cl.N[C@@H](Cc1c[nH]cn1)C(=O)Cc1ccc(F)cc1F; 6 nM
Cl.Cl.N[C@@H](Cc1c[nH]cn1)C(=O)Cc1ccc(Cl)c(Cl)c1; 6 nM

Which IC50 value belongs to Cl.Cl.N[C@@H](Cc1c[nH]cn1)C(=O)Cc1ccc(F)cc1 ?
6 nM

* * *

- TARGET: Histidinol dehydrogenase (Brucella suis biovar 1 (strain 1330), UniProt Q8G2R2)
- Sequence (Q8G2R2 whole entry): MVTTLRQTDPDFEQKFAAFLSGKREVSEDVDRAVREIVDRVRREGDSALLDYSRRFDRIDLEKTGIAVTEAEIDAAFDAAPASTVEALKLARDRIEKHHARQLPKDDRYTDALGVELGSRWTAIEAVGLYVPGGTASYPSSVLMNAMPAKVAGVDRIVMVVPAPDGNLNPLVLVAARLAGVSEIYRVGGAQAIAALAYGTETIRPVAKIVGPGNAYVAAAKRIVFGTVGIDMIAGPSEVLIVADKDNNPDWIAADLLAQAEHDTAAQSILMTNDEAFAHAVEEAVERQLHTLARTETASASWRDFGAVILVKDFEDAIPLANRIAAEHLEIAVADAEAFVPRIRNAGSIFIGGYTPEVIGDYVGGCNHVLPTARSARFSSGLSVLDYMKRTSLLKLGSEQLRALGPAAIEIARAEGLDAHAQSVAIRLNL
- EXPERIMENT_DESCRIPTION: Inhibition of Brucella suis histidinol dehydrogenase
READOUT_TYPE: IC50 (nM)
Just the number please, in nM, no unit attached.

COc1ccc(CC(=O)[C@@H](N)Cc2c[nH]cn2)cc1.Cl.Cl; 6

Let us move to another entry and its IC50.
Which IC50 value belongs to Cl.Cl.N[C@@H](Cc1c[nH]cn1)C(=O)Cc1ccc(Oc2ccccc2)cc1 ?
6
